- Assayed target: recombinant mouse sEH (Mus musculus, UniProt P34914)
- Sequence (P34914 whole entry): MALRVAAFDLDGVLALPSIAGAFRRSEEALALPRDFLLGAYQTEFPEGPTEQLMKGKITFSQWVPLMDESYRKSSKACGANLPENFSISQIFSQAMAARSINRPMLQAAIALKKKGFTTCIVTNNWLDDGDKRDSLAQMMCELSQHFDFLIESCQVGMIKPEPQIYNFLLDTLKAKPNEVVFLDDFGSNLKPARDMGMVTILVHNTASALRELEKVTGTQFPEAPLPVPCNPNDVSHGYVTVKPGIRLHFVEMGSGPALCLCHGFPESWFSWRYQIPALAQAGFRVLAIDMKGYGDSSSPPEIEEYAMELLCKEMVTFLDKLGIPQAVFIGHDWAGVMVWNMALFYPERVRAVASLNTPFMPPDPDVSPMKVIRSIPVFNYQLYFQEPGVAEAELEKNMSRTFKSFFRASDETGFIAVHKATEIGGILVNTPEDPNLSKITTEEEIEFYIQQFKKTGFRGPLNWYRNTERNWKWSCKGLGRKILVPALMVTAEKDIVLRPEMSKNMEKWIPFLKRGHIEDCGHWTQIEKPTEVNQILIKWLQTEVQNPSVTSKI
- Condition summary: read-out: msEH IC50, average of three replicates
Listed compounds paired with reported IC50
Please reply with the bare figure in µM and do not write the unit itself.

> print(dat)
                                   compound  observed.measurement
1  O=C(Nc1ccc(OC(F)(F)F)cc1)NC1CCN(C(=O)CCCCNc2c3c(nc4cc(Cl)ccc24)CCCC3)CC1 [12c]                0.0225
2  CC1=C[C@H]2Cc3nc4cc(Cl)ccc4c(NCCCCC(=O)N4CCC(NC(=O)Nc5ccc(OC(F)(F)F)cc5)CC4)c3[C@@H](C1)C2 [(+)-15]                0.0145
3  CC1=C[C@@H]2Cc3nc4cc(Cl)ccc4c(NCCCCC(=O)N4CCC(NC(=O)Nc5ccc(OC(F)(F)F)cc5)CC4)c3[C@H](C1)C2 [(−)-15]                0.0343

Q: Can you look up IC50 on recombinant mouse sEH (Mus musculus, UniProt P34914) for O=C(Nc1ccc(OC(F)(F)F)cc1)NC1CCN(C(=O)CCNc2c3c(nc4cc(Cl)ccc24)CCCC3)CC1 [12a] ?
A: 0.0121

Q: Thanks! And O=C(Nc1ccc(OC(F)(F)F)cc1)NC1CCN(C(=O)CCCNc2c3c(nc4cc(Cl)ccc24)CCCC3)CC1 [12b] ?
A: 0.015
